- Tested on: Paenibacillus polymyxa
- Measurement notes: Antibacterial activity against Paenibacillus polymyxa DSM 36 assessed as growth inhibition after 24 to 48 hrs
- Format: functional
Active and inactive are the calls of the source. No cut-off for these calls is given here.
Value type: MIC

Query: MIC; subject: Oc1cccc2nc3c(O)cccc3nc12 66.7 µg/mL

Query: MIC; subject: CN(C)[C@@H]1C(O)=C(C(N)=O)C(=O)[C@@]2(O)C(O)=C3C(=O)c4c(O)cccc4[C@@](C)(O)[C@H]3[C@H](O)[C@@H]12.Cl [OXYTETRACYCLINE HYDROCHLORIDE] 6.7 µg/mL

Query: MIC; subject: COC1=CC(=O)O[C@H](c2coc(/C(=C/c3ccc(Cl)[nH]3)CO)n2)[C@@H]1C inactive

Query: MIC; subject: OC[C@H]1O[C@H](Oc2cccc3nc4c(O)cccc4nc23)[C@@H](O)[C@@H]1O inactive
